# TESTED ON: Metabotropic glutamate receptor 3 (Rattus norvegicus)
# ASSAY OVERVIEW: rat mGlu3 negative modulators or antagonists, dose response, thallium flux, HEK/GIRK cells (AID 623885)
# PROTOCOL CONDITIONS: HEK293 GIRK rat mGlu3, thallium flux fluorescence; at 30 µM (top of the series)
Activity calls are given as the source filed them.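 How the source made its calls: active means mean half-maximal effective concentration under 30 µM; inactive means the rest.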
Outcome (select one): T = active, F = inactive

// param item: "CCN(CC)CC#Cc1ccc(C(=O)N2CCC(O)CC2)cc1" ; yields the recorded call
F

// param item: "COc1ccc(C#Cc2ccc(C(=O)N3C[C@H]4C[C@@H]3CN4C(=O)OC(C)(C)C)cc2)cc1" ; yields the recorded call
F

// param item: "CC(=O)OCC#Cc1ccc(C(=O)N2CCC(O)CC2)cc1" ; yields the recorded call
F

// param item: "COc1ccc(C#Cc2ccccc2C(=O)N2CCC(O)CC2)cc1" ; yields the recorded call
F

// param item: "Cc1ccccc1C#Cc1ccc(C(=O)N2CCC(O)CC2)cc1" ; yields the recorded call
T

// param item: "CCN1CCC[C@H]1CNC(=O)c1ccc(C#Cc2ccc(OC)cc2)cc1" ; yields the recorded call
T

// param item: "COc1ccc(C#Cc2ccc(C(=O)Nc3ccc(F)cn3)cc2)cc1" ; yields the recorded call
T

// param item: CCCC(O)C#Cc1ccc(C(=O)N2CCC(O)CC2)cc1 (stereo unspecified) ; yields the recorded call
F

// param item: "CCOC1CCN(C(=O)c2ccc(C#Cc3ccc(OC)cc3)cc2)CC1" ; yields the recorded call
F

// param item: COc1ccc(C#Cc2ccc(C(=O)NCC(C)O)cc2)cc1 (stereo unspecified) ; yields the recorded call
F

// param item: "COc1ccc(C#Cc2ccc(C(=O)N3CCC3)cc2)cc1" ; yields the recorded call
T

====

# TESTED ON: Metabotropic glutamate receptor 3 (Rattus norvegicus) (UniProt P31422)
# Sequence (P31422 whole entry, looked up): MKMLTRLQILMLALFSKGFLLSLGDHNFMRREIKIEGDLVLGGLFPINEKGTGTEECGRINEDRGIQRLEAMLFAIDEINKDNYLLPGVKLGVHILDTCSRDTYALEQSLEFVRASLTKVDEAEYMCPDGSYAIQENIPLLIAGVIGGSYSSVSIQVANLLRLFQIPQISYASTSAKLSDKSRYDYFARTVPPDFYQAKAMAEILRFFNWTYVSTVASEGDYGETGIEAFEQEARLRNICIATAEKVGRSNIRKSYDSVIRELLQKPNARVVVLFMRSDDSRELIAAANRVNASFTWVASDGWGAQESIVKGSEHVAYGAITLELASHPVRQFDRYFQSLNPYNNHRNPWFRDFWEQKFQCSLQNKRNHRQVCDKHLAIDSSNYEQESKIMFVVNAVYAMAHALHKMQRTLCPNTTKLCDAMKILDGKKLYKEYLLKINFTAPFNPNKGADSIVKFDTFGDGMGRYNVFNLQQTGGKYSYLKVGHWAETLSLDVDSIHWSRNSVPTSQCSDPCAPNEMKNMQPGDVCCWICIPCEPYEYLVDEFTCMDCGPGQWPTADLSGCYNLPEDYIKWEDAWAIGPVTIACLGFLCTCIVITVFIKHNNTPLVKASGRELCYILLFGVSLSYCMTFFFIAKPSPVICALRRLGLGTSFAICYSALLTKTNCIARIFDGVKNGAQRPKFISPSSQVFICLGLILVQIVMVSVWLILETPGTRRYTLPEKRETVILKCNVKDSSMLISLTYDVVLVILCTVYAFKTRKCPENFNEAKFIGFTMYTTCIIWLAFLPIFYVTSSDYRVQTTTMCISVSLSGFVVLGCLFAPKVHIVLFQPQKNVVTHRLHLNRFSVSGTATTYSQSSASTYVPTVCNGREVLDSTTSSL
# ASSAY OVERVIEW: rat mGlu3 negative modulators or antagonists, dose response, thallium flux, HEK/GIRK cells (AID 623885)
# PROTOCOL CONDITIONS: HEK293 GIRK rat mGlu3, thallium flux fluorescence; at 30 µM (top of the series)
Activity calls are given as the source filed them.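 Rule for the calls: active = mean half-maximal effective concentration under 30 µM; inactive = the rest.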
Outcome (select one): active, inactive

// param item: COc1ccc(C#Cc2ccc(C(=O)N3CCCC(O)C3)cc2)cc1 (stereo unspecified) ; yields the recorded call
active

// param item: "COc1ccc(C#Cc2ccc(C(=O)N3CCOCC3)cc2)cc1" ; yields the recorded call
active

// param item: "COc1ccc(C#Cc2ccc(C(=O)N3CCC(C(C)=O)(c4ccccc4)CC3)cc2)cc1" ; yields the recorded call
inactive

// param item: "COc1ccc(C#Cc2ccc(C(=O)NCc3ccc(C(C)(C)C)cc3)cc2)cc1" ; yields the recorded call
inactive

// param item: "N#Cc1ccc(C#Cc2ccc(C(=O)N3CCC(O)CC3)cc2)cc1" ; yields the recorded call
active

// param item: "COc1ccc(C#Cc2ccc(C(=O)N[C@H](C)C(C)C)cc2)cc1" ; yields the recorded call
inactive

// param item: "COc1ccc(C#Cc2ccc(C(=O)N3CC(O)C3)cc2)cc1" ; yields the recorded call
active

// param item: "COc1ccc(C#Cc2ccc(C(=O)N3CCC(C#N)(c4ccccc4)CC3)cc2)cc1" ; yields the recorded call
inactive

// param item: COc1ccc(C#Cc2ccc(C(=O)NC3CCC(C)CC3)cc2)cc1 (stereo unspecified) ; yields the recorded call
inactive

// param item: "O=C(c1ccc(C#CCc2ccccc2)cc1)N1CCC(O)CC1" ; yields the recorded call
active

// param item: "COc1ccc(C#Cc2ccc(C(=O)N3CCC(O)(c4ccc(Cl)c(C(F)(F)F)c4)CC3)cc2)cc1" ; yields the recorded call
active
